tested on: endogenous MCL-1; experiment: Biotinylated SAHB pulldown from MEF lysates, anti-MCL-1 Western analysis; assay type: binding, mouse; settings: summary, pull-downs
Sequence (P97287 152-308 limits assumed): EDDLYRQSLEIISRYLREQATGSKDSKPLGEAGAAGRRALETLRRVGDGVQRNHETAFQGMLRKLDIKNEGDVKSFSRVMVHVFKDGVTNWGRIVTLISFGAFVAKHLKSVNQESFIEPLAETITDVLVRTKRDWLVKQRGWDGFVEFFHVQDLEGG
Bridge positions count the residues as written; N and C are the ends. Square brackets hold non-standard residues; d marks the D form. Ends that are not written are not given here. S5 = C=CCCC[C@](C)(N)C(=O)O
property_label: summary of binding properties: binding to MCL-1

substance	reported_result
T226A: biotinylated MCL-1 SAHBD alanine point mutant T226A (RKALETLRRVGDGV[S5]RNH[S5]AAF; staple 15-19; also: biotinylated, place not given here)	diminished binding
K208A: biotinylated MCL-1 SAHBD alanine point mutant K208A (RAALETLRRVGDGV[S5]RNH[S5]TAF; staple 15-19; also: biotinylated, place not given here)	diminished binding
T212A: biotinylated MCL-1 SAHBD alanine point mutant T212A (RKALEALRRVGDGV[S5]RNH[S5]TAF; staple 15-19; also: biotinylated, place not given here)	weakly or not
V216A: biotinylated MCL-1 SAHBD alanine point mutant V216A (RKALETLRRAGDGV[S5]RNH[S5]TAF; staple 15-19; also: biotinylated, place not given here)	weakly or not
R207A: biotinylated MCL-1 SAHBD alanine point mutant R207A (AKALETLRRVGDGV[S5]RNH[S5]TAF; staple 15-19; also: biotinylated, place not given here)	diminished binding
D218A: biotinylated MCL-1 SAHBD alanine point mutant D218A (RKALETLRRVGAGV[S5]RNH[S5]TAF; staple 15-19; also: biotinylated, place not given here)	Binds
F228A: biotinylated MCL-1 SAHBD alanine point mutant F228A (RKALETLRRVGDGV[S5]RNH[S5]TAA; staple 15-19; also: biotinylated, place not given here)	Does not bind
E211A: biotinylated MCL-1 SAHBD alanine point mutant E211A (RKALATLRRVGDGV[S5]RNH[S5]TAF; staple 15-19; also: biotinylated, place not given here)	Binds
G219A: biotinylated MCL-1 SAHBD alanine point mutant G219A (RKALETLRRVGDAV[S5]RNH[S5]TAF; staple 15-19; also: biotinylated, place not given here)	Binds
H224A: biotinylated MCL-1 SAHBD alanine point mutant H224A (RKALETLRRVGDGV[S5]RNA[S5]TAF; staple 15-19; also: biotinylated, place not given here)	Does not bind
R215A: biotinylated MCL-1 SAHBD alanine point mutant R215A (RKALETLRAVGDGV[S5]RNH[S5]TAF; staple 15-19; also: biotinylated, place not given here)	Binds
G217A: biotinylated MCL-1 SAHBD alanine point mutant G217A (RKALETLRRVADGV[S5]RNH[S5]TAF; staple 15-19; also: biotinylated, place not given here)	weakly or not
L213A: biotinylated MCL-1 SAHBD alanine point mutant L213A (RKALETARRVGDGV[S5]RNH[S5]TAF; staple 15-19; also: biotinylated, place not given here)	Does not bind
MCL-1 SAHBD: hydrocarbon-stapled peptide mimicking the MCL-1 BH3 domain (Stabilized Alpha-Helix of BCL-2 Domain), SEQ ID NO:19 (RKALETLRRVGDGV[S5]RNH[S5]TAF; staple 15-19)	Binds
L210A: biotinylated MCL-1 SAHBD alanine point mutant L210A (RKAAETLRRVGDGV[S5]RNH[S5]TAF; staple 15-19; also: biotinylated, place not given here)	Binds
R214A: biotinylated MCL-1 SAHBD alanine point mutant R214A (RKALETLARVGDGV[S5]RNH[S5]TAF; staple 15-19; also: biotinylated, place not given here)	Does not bind
